test system: NCI/ADR-RES; test: NCI tumour cell line growth inhibition, 48 h
The source made the active and inactive calls. Cut-off read from the data, not from the text of the source: active = GI50 up to about 1.1 µM and inactive = higher.
A correct response names exactly one class from true (1) for active, false (0) for inactive

Exercise: Returns: the outcome recorded for COC[C@H]1C(=O)NCC(=O)N2N=CCC[C@H]2C(=O)N(O)[C@H](C)C(=O)O[C@@H](C(C)C)[C@H](NC(=O)[C@@](C)(O)[C@]2(O)CC[C@@H](CC(C)C)[C@H](C)O2)C(=O)N2NCCC[C@@H]2C(=O)N1O in this assay.
Key: true (1)

Exercise: Hello, I am checking results. What call was entered for COC1=C2CC(C)CC(OC)C(OC(=O)CN)[C@H](C)/C=C(\C)C(OC(N)=O)C(OC)/C=C\C=C(/C)C(=O)NC(=CC1=O)C2=O (stereo partly drawn) ?
Key: false (0)

Exercise: Which outcome was entered for the molecule Cc1cc2c(nn1)CCc1c-2no[n+]1[O-] in this test?
Key: false (0)

Exercise: Field: outcome | Entry: Cc1ccc2[nH]c3c(C)c4ccncc4c(C)c3c2c1
Key: true (1)

Exercise: Write down the call the test reported for this molecule. Item: NC(Cc1ccc(O)cn1)C(=O)O (stereo not drawn)
Key: false (0)

Exercise: Dear colleague, could you share the recorded outcome for N#C[C@H](c1nc2ccccc2s1)c1nc2ccccc2nc1Cl when you have a moment?
Key: false (0)

Exercise: Tell me the assay call for Cc1ccccc1NC(=O)Cc1csc(N/N=C2\C(=O)Nc3ccccc32)n1 please.
Key: false (0)

Exercise: Identify the outcome logged in this assay for the molecule shown: O=C(c1cccnc1)N1N=C(c2ccccc2)CC1(O)c1cc(F)c(Cl)cc1Cl (stereo not drawn)
Key: false (0)
